# TEST_TARGET: HLA-B*51:01
# TEST_NAME: IEDB peptide-MHC binding, purified MHC/competitive/fluorescence; filed as Kd, often an IC50 or EC50 that approximates it; bounds were set here for any values at or beyond the usual limits of such assays
# TEST_CONDITIONS: source organism: Homo sapiens
Each entry below lists one item and its recorded Kd value.

In: Read off the recorded Kd for FAAPHRGVA
Out: ≥ 20 µM

In: Read off the recorded Kd for NTAINFFLY
Out: ≥ 20 µM

* * *

# TEST_TARGET: HLA-A*68:02
# TEST_NAME: IEDB peptide-MHC binding, purified MHC/direct/fluorescence; filed as Kd, often an IC50 or EC50 that approximates it; bounds were set here for any values at or beyond the usual limits of such assays
# TEST_CONDITIONS: source organism: Vibrio cholerae V52
pKd: −log10 of the molar value.
OBSERVED_PROPERTY: pKd

In: Give pKd for MGMEQTMSV tested on HLA-A*68:02.
Out: ≥ 9.00

* * *

# TEST_TARGET: HLA-A*02:01
# TEST_NAME: IEDB peptide-MHC binding, purified MHC/competitive/fluorescence; filed as Kd, often an IC50 or EC50 that approximates it; bounds were set here for any values at or beyond the usual limits of such assays
# TEST_CONDITIONS: source organism: Escherichia coli
OBSERVED_PROPERTY: Kd (nM)

P. LMQSLYDWI
Q. ELLEPLYDV
In: Param pair: P , Q . Output: the one whose Kd is numerically greater. Answer by quoting the chosen item's label.
Out: P
(P: 36.2 nM, Q: 1.8 nM)

* * *

# TEST_TARGET: HLA-A*03:01
# TEST_NAME: IEDB peptide-MHC binding, purified MHC/competitive/fluorescence; filed as Kd, often an IC50 or EC50 that approximates it; bounds were set here for any values at or beyond the usual limits of such assays
# TEST_CONDITIONS: source organism: Listeria monocytogenes EGD-e
OBSERVED_PROPERTY: Kd

In: Read off the recorded Kd for LAIVTTPLV
Out: ≥ 20 µM

* * *

# TEST_TARGET: HLA-A*02:17
# TEST_NAME: IEDB peptide-MHC binding, purified MHC/competitive/radioactivity; filed as Kd, often an IC50 or EC50 that approximates it; bounds were set here for any values at or beyond the usual limits of such assays
# TEST_CONDITIONS: source organism: Dengue virus 3 China/80-2/1980
OBSERVED_PROPERTY: pKd
// pKd is dimensionless: -log10 of concentration (M)

In: Read off the recorded pKd for FLAHYIGTSL
Out: 7.65

* * *

# TEST_TARGET: HLA-B*18:01
# TEST_NAME: IEDB peptide-MHC binding, purified MHC/competitive/fluorescence; bounds were set here for any values at or beyond the usual limits of such assays
# TEST_CONDITIONS: source organism: Homo sapiens
OBSERVED_PROPERTY: IC50

In: Read off the recorded IC50 for ILNRETLLDFV
Out: ≥ 20 µM

* * *

# TEST_TARGET: HLA-A*02:03
# TEST_NAME: IEDB peptide-MHC binding, purified MHC/direct/fluorescence; filed as Kd, often an IC50 or EC50 that approximates it; bounds were set here for any values at or beyond the usual limits of such assays
# TEST_CONDITIONS: source organism: Limestone Canyon virus
pKd: −log10 of the molar value.
OBSERVED_PROPERTY: pKd

{"CHAIN": "KLKSVGKAY", "pKd": "≤ 4.70"}

In: Read off the recorded pKd for RTLGVFRYK
Out: ≤ 4.70

* * *

Each entry below lists one item and its recorded Kd value.
# TEST_TARGET: HLA-B*44:03
# TEST_NAME: IEDB peptide-MHC binding, purified MHC/competitive/radioactivity; filed as Kd, often an IC50 or EC50 that approximates it; bounds were set here for any values at or beyond the usual limits of such assays
# TEST_CONDITIONS: source organism: Dengue virus 2 Jamaica/1409/1983
Please reply with the bare figure in nM and do not write the unit itself.

{"CHAIN": "REDQWCGSLI", "Kd / nM": 888}

With those in mind, consider the next sequence.
In: Read off the recorded Kd for LETLLLLTL
Out: 1340

* * *

# TEST_TARGET: HLA-B*15:17
# TEST_NAME: IEDB peptide-MHC binding, purified MHC/competitive/fluorescence; filed as Kd, often an IC50 or EC50 that approximates it; bounds were set here for any values at or beyond the usual limits of such assays
# TEST_CONDITIONS: source organism: Vibrio vulnificus CMCP6
OBSERVED_PROPERTY: Kd (nM)
Please reply with the bare figure in nM and do not write the unit itself.

In: Give Kd for VTFFCVMTY tested on HLA-B*15:17.
Out: 15.1

* * *

# TEST_TARGET: HLA-B*57:01
# TEST_NAME: IEDB peptide-MHC binding, purified MHC/competitive/radioactivity; filed as Kd, often an IC50 or EC50 that approximates it; bounds were set here for any values at or beyond the usual limits of such assays
# TEST_CONDITIONS: source organism: Homo sapiens
OBSERVED_PROPERTY: pKd
// pKd is dimensionless: -log10 of concentration (M)

In: Give pKd for KMKEIAEAY tested on HLA-B*57:01.
Out: 5.54

* * *

Each entry below lists one item and its recorded Kd value.
# TEST_TARGET: HLA-A*33:01
# TEST_NAME: IEDB peptide-MHC binding, purified MHC/competitive/radioactivity; filed as Kd, often an IC50 or EC50 that approximates it; bounds were set here for any values at or beyond the usual limits of such assays
# TEST_CONDITIONS: source organism: Mammarenavirus whitewaterense

{"CHAIN": "VCFWSTLFY", "Kd": "≥ 77.7 µM"}

With those in mind, consider the next sequence.
In: Give Kd for PMPCMINDTH tested on HLA-A*33:01.
Out: ≥ 70 µM

* * *

# TEST_TARGET: HLA-B*57:01
# TEST_NAME: IEDB peptide-MHC binding, purified MHC/competitive/fluorescence; filed as Kd, often an IC50 or EC50 that approximates it; bounds were set here for any values at or beyond the usual limits of such assays
# TEST_CONDITIONS: source organism: Cryptosporidium parvum Iowa II
pKd: −log10 of the molar value.
OBSERVED_PROPERTY: pKd

In: Read off the recorded pKd for RIYKRSLKL
Out: ≤ 4.70

* * *

# TEST_TARGET: HLA-A*03:01
# TEST_NAME: IEDB peptide-MHC binding, purified MHC/competitive/fluorescence; filed as Kd, often an IC50 or EC50 that approximates it; bounds were set here for any values at or beyond the usual limits of such assays
# TEST_CONDITIONS: source organism: Encephalitozoon cuniculi GB-M1
OBSERVED_PROPERTY: pKd
// pKd is dimensionless: -log10 of concentration (M)

In: Read off the recorded pKd for ILSFPYLFK
Out: 8.54

* * *

# TEST_TARGET: HLA-A*30:01
# TEST_NAME: IEDB peptide-MHC binding, purified MHC/competitive/fluorescence; filed as Kd, often an IC50 or EC50 that approximates it; bounds were set here for any values at or beyond the usual limits of such assays
# TEST_CONDITIONS: source organism: Shigella flexneri 5 str. 8401
pKd: −log10 of the molar value.
OBSERVED_PROPERTY: pKd

In: Give pKd for FGALFMWLL tested on HLA-A*30:01.
Out: ≤ 5.30

* * *

# TEST_TARGET: HLA-A*02:06
# TEST_NAME: IEDB peptide-MHC binding, purified MHC/competitive/radioactivity; filed as Kd, often an IC50 or EC50 that approximates it; bounds were set here for any values at or beyond the usual limits of such assays
# TEST_CONDITIONS: source organism: Dengue virus 1 Brazil/97-11/1997
OBSERVED_PROPERTY: Kd (nM)
Please reply with the bare figure in nM and do not write the unit itself.

{"CHAIN": "KLARASFIEV", "UNITS_OF_MEASURE": "nM", "Kd": 22}
{"CHAIN": "GIVAIDLDPV", "UNITS_OF_MEASURE": "nM", "Kd": 9.7}

In: Give Kd for KIVGLYGNGV tested on HLA-A*02:06.
Out: 14.7

In: Give Kd for SLLFKTSAGV tested on HLA-A*02:06.
Out: 35.8

* * *

# TEST_TARGET: HLA-B*35:01
# TEST_NAME: IEDB peptide-MHC binding, purified MHC/competitive/radioactivity; filed as Kd, often an IC50 or EC50 that approximates it; bounds were set here for any values at or beyond the usual limits of such assays
# TEST_CONDITIONS: source organism: Dengue virus 3 China/80-2/1980
OBSERVED_PROPERTY: Kd (nM)
Please reply with the bare figure in nM and do not write the unit itself.

In: Read off the recorded Kd for RPINEKEENM
Out: 1830
